- Tested on: UACC-62 melanoma
- Assay Procedure: NCI tumour cell line growth inhibition, 48 h
Measurement Type: TGI

>  <Compound>
COC(=O)c1cc2ccccc2c2nc3ccccc3c(Cl)c12

>  <Value>
> 100 µM

$$$$
>  <Compound>
CCOC(=O)C1=CSC2=NC3=C(CCC/C3=C\c3cc(OC)c(OC)c(OC)c3)C(c3cc(OC)c(OC)c(OC)c3)N12 (stereo not given)

>  <Value>
> 100 µM

$$$$
>  <Compound>
COc1ncc2cc1NS(=O)(=O)c1cccc(c1)C(=O)NCC1=CC=C(S1)c1ncnc3c1SC2=C3C

>  <Value>
1.24 µM

$$$$

Query :: Param readout= TGI; system= UACC-62 melanoma; entry= COC(=O)c1ccc2c(c1)C(=O)c1c-2n(CCCCl)c(=O)c2cc(OC)c(OC)cc12 ; returns value.
Result :: > 100 µM

Query :: Proceed to CC(=O)c1c(O)c2c([nH]c1=O)CCCC2
Result :: 43.3 µM

Query :: Proceed to O=S(=O)(c1ccc2ccccc2c1)N1CCN(S(=O)(=O)c2ccc3ccccc3c2)CC1
Result :: > 100 µM

Query :: Proceed to COc1cccc(N2C(=O)C3CC(CC(C)(C)C)c4c([nH]c5ccccc45)C3C2=O)c1 (stereo not given)
Result :: > 10 µM

Query :: Proceed to N#Cc1c(N)nc2n[nH]c(N)c2c1-c1ccccc1
Result :: 8.02 µM

Query :: Proceed to CCOc1cc2c(cc1O)CC[C@@H]1[C@@H]2CC[C@]2(C)[C@@H](O)CC[C@@H]12
Result :: 19.7 µM

Query :: Proceed to Brc1ccc(-c2nc(-c3ccc(Br)cc3)n(-c3ccccc3)n2)cc1
Result :: > 100 µM

---

Some molecules, each annotated with its measured TGI.
- System: OVCAR-8 ovarian
- Assay Procedure: NCI tumour cell line growth inhibition, 48 h
Report as a plain number; the unit µM is understood.

These recorded examples may help you get a feel for the data.
>  <Molecule>
CN(C)c1ccc2c(c1)OC(N)=C(C#N)C2c1ccc2c(c1)CCCN2C (stereo not given)

>  <Value>
27.5

$$$$
>  <Molecule>
CCOC(=O)[C@@H]1C[C@@H]1c1ccc(O)c(O)c1

>  <Value>
52.2

$$$$

Query :: Which TGI value belongs to CCCCCC(/C=C/[C@@H]1[C@@H](C(O)CCCCCC(=O)OC)C(=O)C[C@H]1O[Si](C)(C)C(C)(C)C)OCOCCOC (stereo not given in full) ?
Result :: 42.8

---

- Test system: MALME-3M melanoma
- Assay Procedure: NCI tumour cell line growth inhibition, 48 h
Measurement Type: TGI

>  <Compound>
COc1cccc(N2C(=O)C3CC(CC(C)(C)C)c4c([nH]c5ccccc45)C3C2=O)c1 (stereo unspecified)

>  <TGI>
> 10 µM

$$$$

Query :: Which TGI value belongs to CCN(CC)CCS(=O)(=O)CCNc1ccnc2cc(Cl)ccc12 ?
Result :: 13.3 µM

Query :: Proceed to CCN(CC)C(=S)S
Result :: 60.4 µM

Query :: Proceed to COc1ccc(C(=O)/C=C/c2ccc(OCc3ccccc3)c(OC)c2)cc1OC
Result :: > 100 µM

Query :: Proceed to N#Cc1c(N)nc2n[nH]c(N)c2c1-c1ccccc1
Result :: 22 µM

Query :: Proceed to Nc1c(-c2nc3ccccc3s2)[n+]([O-])c2ccccc2[n+]1[O-]
Result :: 91.7 µM

---

Some compounds, each annotated with its measured GI50.
- Test system: M14 melanoma
- Assay Procedure: NCI tumour cell line growth inhibition, 48 h

These recorded examples may help you get a feel for the data.
>  <Smiles>
C=CC[PH+](c1ccccc1)c1ccccc1.C=CC[PH+](c1ccccc1)c1ccccc1.[Pt+2].[S-]c1ncccn1.[S-]c1ncccn1

>  <Value>
5.67 µM

$$$$
>  <Smiles>
N=C(N)c1ccc(OCCCCCOc2ccc(C(=N)N)cc2)cc1

>  <Value>
5.63 µM

$$$$

Query :: Which GI50 value belongs to O=S(=O)(NCCCNc1nccc(-c2c(-c3cccc(F)c3)nc3occn23)n1)c1cccc2ccccc12 ?
Result :: 5.75 µM

---

Some molecules, each annotated with its measured TGI.
- Test system: UACC-62 melanoma
- Assay Procedure: NCI tumour cell line growth inhibition, 48 h
Report as a plain number; the unit µM is understood.

These recorded examples may help you get a feel for the data.
>  <Molecule>
CCOC(=O)C1=C(C)N(CC(C)C)C2(O)C(OC)CC(=O)C3C(=O)N(c4ccccc4)C(=O)C132 (stereo not drawn)

>  <Value>
47.6

$$$$
>  <Molecule>
O=S(=O)(/N=C(\NO)Nc1ccc(Cl)cc1)c1cc(S(=O)(=O)c2ccccc2)cs1

>  <Value>
43.1

$$$$
>  <Molecule>
CC(=O)OC1COC(Oc2c(C)c3c4c(c2O)[C@@H](C)CC[C@@H]4[C@@H](C)C[C@H]3C=C(C)C)C(O)C1O (stereo partly drawn)

>  <Value>
39.4

$$$$

Query :: Which TGI value belongs to O=C1c2ccccc2-n2c1nc1ccc(Cl)cc1c2=O ?
Result :: 92.7

Query :: Proceed to Oc1ccc(-c2[nH]c3ccccc3c2-c2nc3ccccc3o2)cc1
Result :: 15

---

Some compounds, each annotated with its measured log10 TGI.
- System: NCI-H522 lung
- Assay Procedure: NCI tumour cell line growth inhibition, 48 h
Lab note - TGI converted to log10 from values in µM.

These recorded examples may help you get a feel for the data.
>  <Compound>
COc1ccc2c(C(=O)c3c(C)n(CCN4CCOCC4)c4ccccc34)cccc2c1

>  <Study Target>
NCI-H522 lung

>  <Value>
1.70

$$$$
>  <Compound>
NC(N)=N/N=C/c1c(-c2ccc(Cl)cc2)nc2sc(Cl)cn12

>  <Study Target>
NCI-H522 lung

>  <Value>
0.54

$$$$
>  <Compound>
CCCCC1Cc2cc(OC)ccc2-c2n1c1cc(OC)ccc1[n+]2C (configuration not stated) (tested in a mixture with another compound)

>  <Study Target>
NCI-H522 lung

>  <Value>
0.84

$$$$
>  <Compound>
Oc1ccc(-c2[nH]c3ccccc3c2-c2nc3ccccc3o2)cc1

>  <Study Target>
NCI-H522 lung

>  <Value>
0.98

$$$$

Query :: Param readout= log10 TGI; system= NCI-H522 lung; entry= COc1ccc(C(=O)/C=C/c2ccc(OCc3ccccc3)c(OC)c2)cc1OC ; returns value.
Result :: 0.82

Query :: Proceed to CCCCOc1ccc(S(=O)(=O)/N=C(\N)Nc2ccc(Cl)cc2)cc1
Result :: 1.36

---

- System: MALME-3M melanoma
- Assay Procedure: NCI tumour cell line growth inhibition, 48 h
Measurement Type: TGI

>  <Compound>
C=C(C)[C@@H]1CC[C@]2(C(=O)n3ccnc3)CC[C@]3(C)[C@H](CC[C@@H]4[C@@]5(C)CCCNC(C)(C)[C@@H]5CC[C@]43C)[C@@H]12

>  <Value>
2.86 µM

$$$$
>  <Compound>
O=C(NN1C(=O)C(Cl)C1c1c(O)ccc2ccccc12)c1ccccc1O (centres undefined)

>  <Value>
> 100 µM

$$$$
>  <Compound>
O=C(/C=C/c1ccc(Cl)cc1)c1ccc(Cl)s1

>  <Value>
> 100 µM

$$$$
>  <Compound>
COc1cccc2c1[C@H]1OC(=O)NC1CCCCC2 (some centres undefined)

>  <Value>
> 100 µM

$$$$
>  <Compound>
CN(C)c1ccc2c(c1)OC(N)=C(C#N)C2c1ccc2c(c1)CCCN2C (centres undefined)

>  <Value>
58.9 µM

$$$$

Query :: Which TGI value belongs to CC1=CC(=O)c2c(O)c3c(c(O)c2C1=O)C1C(O)C(C3=O)C23C(=O)c4c(O)c(C)cc(O)c4C(O)=C2C(=O)CC(O)C13 (centres undefined) ?
Result :: 2.91 µM

Query :: Proceed to Cc1cc(/N=C/c2ccc(Cl)cc2)n(-c2ccccc2)n1
Result :: > 100 µM

Query :: Proceed to O=C(CN(/C=C/C(=O)C(F)(F)F)c1ccccc1)c1ccc(F)cc1
Result :: 74.1 µM

Query :: Proceed to C1=C(c2ccccc2)C(OC2Oc3ccccc3C=C2c2ccccc2)Oc2ccccc21 (centres undefined)
Result :: > 100 µM

Query :: Proceed to O=C1Nc2ccccc2C1S(=O)(=O)c1ccccc1 (centres undefined)
Result :: > 100 µM

---

- System: DU-145 prostate
- Assay Procedure: NCI tumour cell line growth inhibition, 48 h
Measurement Type: TGI

>  <Compound>
CCN(CC)Cc1ccc(Nc2c3ccccc3nc3ccccc23)cc1

>  <TGI>
7.01 µM

$$$$
>  <Compound>
Cn1cnnc1SC(F)(F)c1nc2ccccc2o1

>  <TGI>
> 100 µM

$$$$
>  <Compound>
Nc1n[nH]c2ccc([C@@H]3Nc4c(F)cc5[nH]ncc5c4[C@H]4C5CCC(C5)[C@@H]34)cc12 (stereo not given in full)

>  <TGI>
> 46.2 µM

$$$$
>  <Compound>
COc1cccc(N2C(=O)C3CC(CC(C)(C)C)c4c([nH]c5ccccc45)C3C2=O)c1 (stereo not given)

>  <TGI>
> 10 µM

$$$$

Now examine the next entry.
Query :: Which TGI value belongs to O=C(/C=C/c1ccc(Cl)cc1)c1ccc(Cl)s1 ?
Result :: > 100 µM

Origin of measurements: PubChem BioAssay (NCI)
